biological target: K‐Ras(G12D) (Homo sapiens, UniProt P01116, G12D); experiment: Nucleotide exchange assay; type: biochemical
Sequence (P01116 1-188 isoform P01116-2 G12D): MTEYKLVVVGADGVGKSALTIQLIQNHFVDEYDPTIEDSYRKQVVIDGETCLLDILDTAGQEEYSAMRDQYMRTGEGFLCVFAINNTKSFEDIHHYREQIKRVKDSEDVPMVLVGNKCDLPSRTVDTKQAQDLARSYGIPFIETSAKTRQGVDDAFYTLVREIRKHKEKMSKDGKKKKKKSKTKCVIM
observable: pIC50
Keep it numeric: pIC50 is minus log10 of the concentration in mol/L.

[Q] Please report the recorded pIC50 for `Oc1ccc(C(=NNc2ccc(Cl)cc2)c2ccc(O)cc2)cc1` .
[A] 3.32

[Q] Likewise for `O=S(=O)(NN=C(c1ccc(O)cc1)c1ccc(O)cc1)c1ccccc1` ?
[A] 2.88

[Q] Likewise for `O=C(c1nc2cccc(O)c2[nH]1)c1cc2cccc(O)c2o1` ?
[A] 3.47

[Q] Likewise for O=C(c1ccc(O)cc1)c1ccc(O)cc1 [compound 9, 4,4’‐Dihydroxybenzophenone, reference compound] ?
[A] 2.92

[Q] Likewise for `O=S(=O)(NN=C(c1ccc(O)cc1)c1ccc(O)cc1)c1ccc(OC(F)(F)F)cc1` ?
[A] 3.07

[Q] Likewise for `Oc1ccc(C(=NOCc2ccccc2)c2ccc(O)cc2)cc1` ?
[A] 3.37

[Q] Likewise for `O=C(c1nc2cc(O)ccc2[nH]1)c1cc2cccc(O)c2o1` ?
[A] 3.39
